Attribute: Kd
- targetOrTestSystem: T1, recombinant LILRA3 (human, UniProt Q8N6C8 24-439)
- T1 construct: whole entry named; also called LILRA3 ECD; LILA3
- T1 sequence (Q8N6C8 24-439 limits assumed): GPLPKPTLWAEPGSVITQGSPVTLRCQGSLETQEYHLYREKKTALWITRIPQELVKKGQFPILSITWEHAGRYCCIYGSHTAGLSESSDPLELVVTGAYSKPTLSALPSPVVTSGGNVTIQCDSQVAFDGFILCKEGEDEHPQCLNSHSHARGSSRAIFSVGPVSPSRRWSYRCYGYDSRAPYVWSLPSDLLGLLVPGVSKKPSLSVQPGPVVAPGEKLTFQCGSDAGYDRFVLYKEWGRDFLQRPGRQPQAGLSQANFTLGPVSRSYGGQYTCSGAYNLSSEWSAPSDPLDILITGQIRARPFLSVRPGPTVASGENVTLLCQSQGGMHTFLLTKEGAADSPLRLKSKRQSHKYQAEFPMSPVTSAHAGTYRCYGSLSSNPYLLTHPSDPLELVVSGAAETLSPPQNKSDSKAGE
- assayMethodText: BLI, IgG on AHC sensor, ECD in solution

- binder: "A-027 (antibody, V domains shown, tested as IgG) VH: QVQLVQSGAEVKKPGSSVKVSCKASGGSFTGYAISWVRQAPGQGLEWMGGILPSFYTAVYAQKFQGRVTITADESTSTAYMELSSLRSEDTAVYYCAKGPPVGSSSWYTDWYFDLWGRGTLVTVSS VL: SYELTQPPSVSVSPGQTASITCSGDKLGDKYASWYQQKPGQSPVLVIYQDSKRPSGIPERFSGSNSGNTATLTISGTQAEDEADYYCLSYGAHSHGVVFGGGTKLTVL"
  Kd, nM: 124
- binder: "A-026 (antibody, V domains shown, tested as IgG) VH: QVQLVQSGAEVKKPGSSVKVSCKASGYTFTSHGMSWVRQAPGQGLEWMGGILPIFHTATYAQKFQGRVTITADESTSTAYMELSSLRSEDTAVYYCAKGPPVGSSSWYTDWYFDLWGRGTLVTVSS VL: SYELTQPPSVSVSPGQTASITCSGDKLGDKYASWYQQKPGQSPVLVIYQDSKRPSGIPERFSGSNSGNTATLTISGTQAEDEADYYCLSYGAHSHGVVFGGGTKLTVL"
  Kd, nM: 79.3
- binder: "A-015 (antibody, V domains shown, tested as IgG) VH: QVQLVQSGAEVKKPGSSVKVSCKASGGSFQSYAINWVRQAPGQGLEWMGGIIPGFSTANYAQKFQGRVTITADESTSTAYMELSSLRSEDTAVYYCAKDLGTYSSGWPYYYGMDVWGQGTTVTVSS VL: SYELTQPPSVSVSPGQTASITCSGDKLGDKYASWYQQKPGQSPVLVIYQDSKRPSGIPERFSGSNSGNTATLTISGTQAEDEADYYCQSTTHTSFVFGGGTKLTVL"
  Kd, nM: 202
